Source: patent US5985603A

# TARGET SYSTEM: hP2X (Homo sapiens)
# Construct: expressed in transfected cells; host or cells: Xenopus oocytes injected with in vitro transcribed RNA
# Sequence (P51575 1-399): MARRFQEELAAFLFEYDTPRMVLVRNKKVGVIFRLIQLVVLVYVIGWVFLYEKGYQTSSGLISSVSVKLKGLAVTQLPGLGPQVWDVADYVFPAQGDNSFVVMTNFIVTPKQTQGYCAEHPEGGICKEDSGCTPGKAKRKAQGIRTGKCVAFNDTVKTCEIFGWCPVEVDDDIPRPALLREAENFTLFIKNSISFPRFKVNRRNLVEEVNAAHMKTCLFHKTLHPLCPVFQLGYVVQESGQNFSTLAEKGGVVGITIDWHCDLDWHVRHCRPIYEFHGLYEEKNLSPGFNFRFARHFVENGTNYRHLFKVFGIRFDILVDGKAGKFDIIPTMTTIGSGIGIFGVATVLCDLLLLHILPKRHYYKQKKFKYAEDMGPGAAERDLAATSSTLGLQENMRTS
# PROTOCOL DESCRIPTION: inward currents evoked by purinoceptor agonists in Xenopus oocytes expressing hP2X
# Assay type: cell-based
Where a name gives a salt, the structure may show the parent alone.
ENDPOINT LABEL: EC50 (µM)
// units = µM; emit number, no label

Enquiry: Supply EC50 value. Item: Nc1ncnc2c1ncn2[C@@H]1O[C@H](COP(=O)(O)OP(=O)(O)OP(O)(O)=S)[C@@H](O)[C@H]1O [ATP-γ-S]
Return: 10.6

Enquiry: // fetch EC50 given entry CSc1nc(N)c2ncn([C@@H]3O[C@H](COP(=O)(O)OP(=O)(O)OP(=O)(O)O)[C@@H](O)[C@H]3O)c2n1 [2MeSATP, 2-MethylthioATP tetra sodium salt]
Return: 0.6

Enquiry: Check the records and state EC50 for Nc1ncnc2c1ncn2[C@@H]1O[C@H](COP(=O)(O)OP(=O)(O)CP(=O)(O)O)[C@@H](O)[C@H]1O [d,β,γ-meATP, β,γ-methylene-D-ATP sodium salt]
Return: 24.1

Enquiry: Entry Nc1ncnc2c1ncn2[C@@H]1O[C@H](COP(=O)(O)CP(=O)(O)OP(=O)(O)O)[C@@H](O)[C@H]1O [α,β-meATP, α,β-methylene ATP lithium salt] needs its EC50 filled in; supply it.
Return: 3.6

Enquiry: Please give measured EC50 of the following entry: Nc1ncnc2c1ncn2[C@@H]1O[C@H](COP(=O)(O)OP(=O)(O)OP(=O)(O)OP(=O)(O)OP(=O)(O)OC[C@H]2O[C@@H](n3cnc4c(N)ncnc43)[C@H](O)[C@@H]2O)[C@@H](O)[C@H]1O [AP5A, trilithium salt]
Return: 2

Enquiry: Please look at this compound and report its EC50: Nc1nc(Cl)nc2c1ncn2[C@@H]1O[C@H](COP(=O)(O)OP(=O)(O)OP(=O)(O)O)[C@@H](O)[C@H]1O [2chloroATP, 2-chloro-ATP tetra sodium salt]
Return: 0.76

Enquiry: Name the recorded EC50 of the compound listed here: Nc1ncnc2c1ncn2[C@@H]1O[C@H](COP(=O)([O-])OP(=O)([O-])[O-])[C@@H](O)[C@H]1O.[Na+].[Na+].[Na+] [ADP, adenosine 5'-diphosphate sodium salt]
Return: 34.3
